- Assayed target: Aurora kinase A (Homo sapiens, UniProt O14965); further: in the data inactive means no Kd found up to 30 µM
- Sequence (O14965 whole entry): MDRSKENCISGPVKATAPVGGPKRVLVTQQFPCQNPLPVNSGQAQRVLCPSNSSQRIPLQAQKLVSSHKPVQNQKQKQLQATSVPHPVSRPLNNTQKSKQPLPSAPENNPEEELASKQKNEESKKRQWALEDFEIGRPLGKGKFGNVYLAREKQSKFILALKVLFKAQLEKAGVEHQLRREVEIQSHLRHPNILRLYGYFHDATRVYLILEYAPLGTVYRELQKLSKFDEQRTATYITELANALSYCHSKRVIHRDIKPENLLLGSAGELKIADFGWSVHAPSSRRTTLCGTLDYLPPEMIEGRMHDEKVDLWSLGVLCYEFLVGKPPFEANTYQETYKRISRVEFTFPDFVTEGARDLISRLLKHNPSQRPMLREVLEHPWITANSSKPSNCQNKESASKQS
Counter-ions that a name gives are not always drawn. Activity calls are given as the source filed them.
Valid outcomes are listed here; reply with one: active, inactive

Query: Call for entry `C[C@H]1CNCCCN1S(=O)(=O)c1cccc2cncc(F)c12` :
Result: inactive

Query: `COCC(=O)NC/C=C/c1ccc2ncnc(Nc3ccc(Oc4ccc(C)nc4)c(C)c3)c2c1` , same question.
Result: inactive

Query: `Cn1ncc(Cl)c1-c1cc(C(=O)N[C@H](CN)Cc2ccc(F)c(F)c2)oc1Cl` , same question.
Result: inactive

Query: `CNC(=O)c1cccc2cc(Oc3ccnc4cc(OCC5(N)CC5)c(OC)cc34)ccc12` , same question.
Result: inactive

Query: `Cc1cccc(-c2nn3c(c2-c2ccnc4ccc(C(N)=O)cc24)CCC3)n1` , same question.
Result: inactive

Query: `CCCCCCCCCCCCCCCCCCOP(=O)([O-])OC1CC[N+](C)(C)CC1` , same question.
Result: inactive

Query: `Cc1nc(Nc2n[nH]c3c2CN(C(=O)N[C@H](CN(C)C)c2ccccc2)C3(C)C)c2sccc2n1` , same question.
Result: active

Query: `CC(C)(C)c1nc(-c2cccc(NS(=O)(=O)c3c(F)cccc3F)c2F)c(-c2ccnc(N)n2)s1` , same question.
Result: inactive

Query: CCS(=O)(=O)N1CCN(c2ccc(Nc3ncc(C(N)=O)c(NC4CC4)n3)cc2)CC1 [Cerdulatinib Hydrochloride] , same question.
Result: inactive

Query: `Cc1cc(Nc2ncnc3ccc(NC4=NC(C)(C)CO4)cc23)ccc1Oc1ccn2ncnc2c1` , same question.
Result: inactive

----------
- Assayed target: TRAF2 and NCK-interacting protein kinase (Homo sapiens); further: in the data inactive means no Kd found up to 30 µM
- Sequence (Q9UKE5 whole entry): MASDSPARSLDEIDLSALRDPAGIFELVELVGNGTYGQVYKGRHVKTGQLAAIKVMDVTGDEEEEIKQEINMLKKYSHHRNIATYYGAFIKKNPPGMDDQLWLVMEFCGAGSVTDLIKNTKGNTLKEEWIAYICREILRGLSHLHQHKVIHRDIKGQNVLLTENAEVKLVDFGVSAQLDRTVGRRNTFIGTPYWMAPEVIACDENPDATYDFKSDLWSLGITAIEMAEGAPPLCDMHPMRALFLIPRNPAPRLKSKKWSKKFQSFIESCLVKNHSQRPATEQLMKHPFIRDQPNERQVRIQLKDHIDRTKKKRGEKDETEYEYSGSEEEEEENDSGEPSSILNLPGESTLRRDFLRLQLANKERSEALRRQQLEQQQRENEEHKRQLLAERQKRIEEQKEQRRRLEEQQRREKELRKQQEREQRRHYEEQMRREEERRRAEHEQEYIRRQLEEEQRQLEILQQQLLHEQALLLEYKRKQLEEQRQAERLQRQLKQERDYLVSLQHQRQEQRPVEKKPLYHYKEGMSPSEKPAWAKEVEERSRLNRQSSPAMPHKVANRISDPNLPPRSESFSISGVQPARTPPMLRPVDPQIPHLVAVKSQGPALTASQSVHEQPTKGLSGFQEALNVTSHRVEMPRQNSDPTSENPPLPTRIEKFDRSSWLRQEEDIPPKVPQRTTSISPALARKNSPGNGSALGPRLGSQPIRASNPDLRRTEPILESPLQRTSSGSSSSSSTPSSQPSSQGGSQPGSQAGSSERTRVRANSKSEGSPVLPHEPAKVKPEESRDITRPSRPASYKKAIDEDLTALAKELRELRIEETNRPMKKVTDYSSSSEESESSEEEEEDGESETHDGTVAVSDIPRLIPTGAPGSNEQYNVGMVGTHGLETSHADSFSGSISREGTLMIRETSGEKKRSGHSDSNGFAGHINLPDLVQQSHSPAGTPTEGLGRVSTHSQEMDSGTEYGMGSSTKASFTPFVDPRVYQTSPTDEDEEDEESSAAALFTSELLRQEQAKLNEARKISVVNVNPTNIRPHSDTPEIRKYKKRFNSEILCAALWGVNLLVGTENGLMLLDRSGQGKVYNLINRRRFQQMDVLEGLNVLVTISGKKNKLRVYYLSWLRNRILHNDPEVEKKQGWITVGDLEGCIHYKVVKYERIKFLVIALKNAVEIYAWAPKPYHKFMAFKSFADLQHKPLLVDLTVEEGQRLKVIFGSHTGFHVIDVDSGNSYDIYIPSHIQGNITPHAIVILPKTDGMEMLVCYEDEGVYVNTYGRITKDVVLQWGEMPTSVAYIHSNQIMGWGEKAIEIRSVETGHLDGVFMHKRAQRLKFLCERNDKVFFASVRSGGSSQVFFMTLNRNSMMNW
The source made the active and inactive calls.
Measurement type: Kd

Query: Value lookup for Kd; key = Cc1[nH]c(/C=C2\C(=O)Nc3ccccc32)c(C)c1CCC(=O)O [ORANTINIB]
Result: 0.012 µM

Query: C#Cc1cccc(Nc2ncnc3cc(OC)c(OCCCCCCC(=O)NO)cc23)c1 [CUDC-101] , same question.
Result: > 30 µM (inactive)

Query: COc1cc(Nc2ncc3c(n2)-c2ccc(Cl)cc2C(c2c(F)cccc2OC)=NC3)ccc1C(=O)O [ALISERTIB] , same question.
Result: > 30 µM (inactive)

Query: C[C@@H](N)c1ccc(C(=O)Nc2ccnc3[nH]ccc23)cc1 [Y-39983] , same question.
Result: > 30 µM (inactive)

Query: C[C@@H](NC(=O)c1ncnc(N)c1Cl)c1ncc(C(=O)Nc2cc(C(F)(F)F)c(Cl)cn2)s1 [TOVORAFENIB] , same question.
Result: > 30 µM (inactive)

Query: Cc1nc(NC(=O)N2CCC[C@H]2C(N)=O)sc1-c1ccnc(C(C)(C)C(F)(F)F)c1 [ALPELISIB] , same question.
Result: > 30 µM (inactive)

---
Query: Value lookup for Kd; key = O=C(Nc1cc(C(F)(F)F)cc(C(F)(F)F)c1)c1cc(Cl)ccc1O [IMD-0354]
Result: > 30 µM (inactive)

----------
- Assayed target: Activated CDC42 kinase 1 (Homo sapiens, UniProt Q07912); further: in the data inactive means no Kd found up to 30 µM
- Sequence (Q07912 whole entry): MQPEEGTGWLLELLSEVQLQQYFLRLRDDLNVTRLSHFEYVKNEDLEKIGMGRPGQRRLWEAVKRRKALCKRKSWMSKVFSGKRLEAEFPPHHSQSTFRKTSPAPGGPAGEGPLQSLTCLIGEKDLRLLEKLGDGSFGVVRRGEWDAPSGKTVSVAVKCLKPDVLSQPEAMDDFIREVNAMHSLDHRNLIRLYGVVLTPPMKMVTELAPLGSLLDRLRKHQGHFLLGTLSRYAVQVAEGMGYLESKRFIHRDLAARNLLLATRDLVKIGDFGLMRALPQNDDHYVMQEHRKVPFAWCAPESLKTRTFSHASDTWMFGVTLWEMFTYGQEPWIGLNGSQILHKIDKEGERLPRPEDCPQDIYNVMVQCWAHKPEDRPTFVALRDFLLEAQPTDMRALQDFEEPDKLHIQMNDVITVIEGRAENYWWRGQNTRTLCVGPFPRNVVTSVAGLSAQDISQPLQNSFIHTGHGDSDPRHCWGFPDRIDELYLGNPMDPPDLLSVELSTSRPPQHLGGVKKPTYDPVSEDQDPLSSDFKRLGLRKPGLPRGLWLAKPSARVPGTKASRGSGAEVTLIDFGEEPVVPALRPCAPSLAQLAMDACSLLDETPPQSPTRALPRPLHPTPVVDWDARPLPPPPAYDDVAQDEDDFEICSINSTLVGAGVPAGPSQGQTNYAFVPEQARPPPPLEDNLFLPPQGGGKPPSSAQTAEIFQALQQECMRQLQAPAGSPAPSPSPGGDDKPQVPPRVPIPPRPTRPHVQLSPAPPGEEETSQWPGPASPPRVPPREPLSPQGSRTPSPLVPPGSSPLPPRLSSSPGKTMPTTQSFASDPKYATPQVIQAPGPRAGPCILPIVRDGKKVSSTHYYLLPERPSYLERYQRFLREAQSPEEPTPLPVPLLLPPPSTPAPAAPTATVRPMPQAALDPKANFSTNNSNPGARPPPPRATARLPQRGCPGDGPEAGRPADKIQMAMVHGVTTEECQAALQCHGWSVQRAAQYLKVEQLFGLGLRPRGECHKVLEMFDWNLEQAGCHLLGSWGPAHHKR
Calls of active or inactive are those of the source.
Valid outcomes are listed here; reply with one: Y (active), N (inactive)

Query: Call for entry `CCn1cc(-c2ccnc3[nH]c(-c4cccc(CN(C)C)c4)cc23)c(-c2ccc(NC(=O)N(C)C)cc2)n1` :
Result: N

Query: O=c1[nH]ccc2cc(OC3CCNCC3)ccc12 [SAR-407899 FREE BASE] , same question.
Result: N

---
Query: Call for entry `CN1C/C=C/CCOc2cccc(c2)-c2ccnc(n2)Nc2cccc(c2)C1` :
Result: N

Query: `CN1CCN(CCOc2cc(OC3CCOCC3)c3c(Nc4c(Cl)ccc5c4OCO5)ncnc3c2)CC1` , same question.
Result: Y

Query: `COc1ccc(S(=O)(=O)N(C(C)=O)c2ccccc2/C=C/c2cc[n+]([O-])cc2)cc1` , same question.
Result: N

Query: `Cn1ncc(Cl)c1-c1cc(C(=O)N[C@H](CN)Cc2ccc(F)c(F)c2)oc1Cl` , same question.
Result: N

----------
- Assayed target: Protein kinase C alpha type (Homo sapiens); further: in the data inactive means no Kd found up to 30 µM
Activity calls are given as the source filed them.
Valid outcomes are listed here; reply with one: y (active), n (inactive)

Query: Call for entry O=c1[nH]ccc2cc(OC3CCNCC3)ccc12 [SAR-407899 FREE BASE] :
Result: n

Query: Cc1cnc(NC(=O)Nc2cc(Br)c(C)cc2OC[C@@H]2CNCCO2)cn1 [RABUSERTIB] , same question.
Result: n

Query: Cc1cccc(-c2nn3c(c2-c2ccnc4ccc(C(N)=O)cc24)CCC3)n1 [GALUNISERTIB] , same question.
Result: n

Query: CC(C)c1cc(CNc2nc(Nc3cc(C4CC4)[nH]n3)cc(N3CCN(C)CC3)n2)on1 [XL-228] , same question.
Result: y

Query: COc1cc([C@@H]2c3cc4c(cc3[C@H](O)[C@H]3COC(=O)[C@@H]23)OCO4)cc(OC)c1OC [AXL-1717] , same question.
Result: n

---
Query: Call for entry C[C@@H](NC(=O)c1ncnc(N)c1Cl)c1ncc(C(=O)Nc2cc(C(F)(F)F)c(Cl)cn2)s1 [TOVORAFENIB] :
Result: n

Query: Cc1cc(Nc2ncnc3ccc(NC4=NC(C)(C)CO4)cc23)ccc1Oc1ccn2ncnc2c1 [TUCATINIB] , same question.
Result: n

Query: O=C1NC(=O)[C@@H](c2cn3c4c(cccc24)CCC3)[C@@H]1c1c[nH]c2ccccc12 [TIVANTINIB] , same question.
Result: n

Query: CO[C@H]1C[C@@H]2CC[C@@H](C)[C@@](O)(O2)C(=O)C(=O)N2CCCC[C@H]2C(=O)O[C@H]([C@H](C)C[C@@H]2CC[C@@H](OP(C)(C)=O)[C@H](OC)C2)CC(=O)[C@H](C)/C=C(\C)[C@@H](O)[C@@H](OC)C(=O)[C@H](C)C[C@H](C)/C=C/C=C/C=C/1C [RIDAFOROLIMUS] , same question.
Result: n

Query: N#CC[C@H](C1CCCC1)n1cc(-c2ncnc3[nH]ccc23)cn1 [RUXOLITINIB] , same question.
Result: y

Query: COc1ncc(-c2ccc3nccc(-c4ccnnc4)c3c2)cc1NS(=O)(=O)c1ccc(F)cc1F [OMIPALISIB] , same question.
Result: n

Query: CCn1c(C(=O)N(C2CC2)C2CC2)cc2c3c(ncn3C)c(Nc3cc(C)n(C)n3)nc21 [BMS-911543] , same question.
Result: n

Query: Cc1nc(NC(=O)N2CCC[C@H]2C(N)=O)sc1-c1ccnc(C(C)(C)C(F)(F)F)c1 [ALPELISIB] , same question.
Result: n

Query: CO[C@H]1C[C@@H]2CC[C@@H](C)[C@@](O)(O2)C(=O)C(=O)N2CCCC[C@H]2C(=O)O[C@H]([C@H](C)C[C@@H]2CC[C@@H](OC(=O)C(C)(CO)CO)[C@H](OC)C2)CC(=O)[C@H](C)/C=C(\C)[C@@H](O)[C@@H](OC)C(=O)[C@H](C)C[C@H](C)/C=C/C=C/C=C/1C [TEMSIROLIMUS] , same question.
Result: n

Query: FC(F)(F)c1ccc(/C=C/c2nc(COc3ccc(CCCCn4ccnn4)cc3)co2)cc1 [MUBRITINIB] , same question.
Result: n

----------
- Assayed target: Tyrosine-protein kinase JAK2 (Homo sapiens, UniProt O60674); further: in the data inactive means no Kd found up to 30 µM
- Sequence (O60674 whole entry): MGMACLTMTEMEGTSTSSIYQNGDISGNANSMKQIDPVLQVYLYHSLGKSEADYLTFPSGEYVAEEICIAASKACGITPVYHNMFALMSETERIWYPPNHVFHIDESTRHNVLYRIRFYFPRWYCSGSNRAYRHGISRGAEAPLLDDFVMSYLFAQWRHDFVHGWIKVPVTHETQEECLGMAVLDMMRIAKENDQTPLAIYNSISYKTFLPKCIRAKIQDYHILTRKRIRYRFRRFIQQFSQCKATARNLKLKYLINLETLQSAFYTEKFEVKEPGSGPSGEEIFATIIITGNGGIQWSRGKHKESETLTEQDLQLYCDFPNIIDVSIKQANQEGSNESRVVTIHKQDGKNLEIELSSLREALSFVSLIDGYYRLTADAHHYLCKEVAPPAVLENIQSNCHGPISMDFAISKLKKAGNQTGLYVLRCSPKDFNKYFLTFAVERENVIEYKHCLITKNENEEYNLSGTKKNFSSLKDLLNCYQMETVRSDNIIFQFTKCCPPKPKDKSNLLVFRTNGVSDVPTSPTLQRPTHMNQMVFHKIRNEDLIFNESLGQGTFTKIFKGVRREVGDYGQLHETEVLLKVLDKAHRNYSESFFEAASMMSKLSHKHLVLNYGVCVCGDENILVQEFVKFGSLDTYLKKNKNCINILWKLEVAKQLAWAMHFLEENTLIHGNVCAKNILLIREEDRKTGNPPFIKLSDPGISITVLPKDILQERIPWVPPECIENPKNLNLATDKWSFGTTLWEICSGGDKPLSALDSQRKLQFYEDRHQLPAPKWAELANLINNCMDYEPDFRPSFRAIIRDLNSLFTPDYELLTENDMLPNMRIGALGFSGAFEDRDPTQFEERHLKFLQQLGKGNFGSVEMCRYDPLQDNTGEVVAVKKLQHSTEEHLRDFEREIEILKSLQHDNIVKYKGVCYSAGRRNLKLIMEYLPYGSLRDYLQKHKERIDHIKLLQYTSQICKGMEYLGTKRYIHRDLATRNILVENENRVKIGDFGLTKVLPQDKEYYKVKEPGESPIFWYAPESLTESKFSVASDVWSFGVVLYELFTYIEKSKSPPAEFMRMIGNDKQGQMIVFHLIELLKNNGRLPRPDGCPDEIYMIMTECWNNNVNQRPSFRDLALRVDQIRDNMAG
Calls of active or inactive are those of the source.
Valid outcomes are listed here; reply with one: active, inactive

Answered cases to consult:
Query: Call for entry `CO[C@H]1C[C@@H]2CC[C@@H](C)[C@@](O)(O2)C(=O)C(=O)N2CCCC[C@H]2C(=O)O[C@H]([C@H](C)C[C@@H]2CC[C@@H](OC(=O)C(C)(CO)CO)[C@H](OC)C2)CC(=O)[C@H](C)/C=C(\C)[C@@H](O)[C@@H](OC)C(=O)[C@H](C)C[C@H](C)/C=C/C=C/C=C/1C` :
Result: inactive

Query: `Cc1csc(-c2nnc(Nc3ccc(Oc4ncccc4-c4ccnc(N)n4)cc3)c3ccccc23)c1` , same question.
Result: inactive

Query: `CNC(=O)c1cc(Oc2ccc(NC(=O)Nc3cc(C(C)(C)C)nn3-c3ccc4ncccc4c3)c(F)c2)ccn1` , same question.
Result: active

---
Query: Call for entry `O=C(Cc1ccc(-c2ccc(OCCN3CCOCC3)cc2)cn1)NCc1ccccc1` :
Result: inactive

Query: `CCn1c(C(=O)N(C2CC2)C2CC2)cc2c3c(ncn3C)c(Nc3cc(C)n(C)n3)nc21` , same question.
Result: inactive

----------
For each entry below, report its Kd value.
- Assayed target: UniProt:P41240
- Sequence (P41240 whole entry): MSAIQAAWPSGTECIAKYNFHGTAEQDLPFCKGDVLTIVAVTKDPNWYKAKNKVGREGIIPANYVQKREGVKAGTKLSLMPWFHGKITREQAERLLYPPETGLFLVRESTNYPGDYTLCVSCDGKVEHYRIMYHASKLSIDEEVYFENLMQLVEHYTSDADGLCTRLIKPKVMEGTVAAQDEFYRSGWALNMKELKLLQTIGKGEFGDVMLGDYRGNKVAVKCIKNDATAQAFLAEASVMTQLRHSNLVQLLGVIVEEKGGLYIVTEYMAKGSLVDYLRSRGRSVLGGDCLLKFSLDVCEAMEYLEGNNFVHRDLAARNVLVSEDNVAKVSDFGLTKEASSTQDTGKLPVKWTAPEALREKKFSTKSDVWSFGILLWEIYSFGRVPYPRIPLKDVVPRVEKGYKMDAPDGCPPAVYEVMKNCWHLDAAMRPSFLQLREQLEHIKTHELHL
Where a name gives a salt, the structure may show the parent alone. Active and inactive are the calls of the source.

Use these answered entries as a reference point.
Query: Value lookup for Kd; key = C[C@@H](NC(=O)c1ncnc(N)c1Cl)c1ncc(C(=O)Nc2cc(C(F)(F)F)c(Cl)cn2)s1 [TOVORAFENIB]
Result: > 30 µM (inactive)

Query: CCS(=O)(=O)N1CCN(c2ccc(Nc3ncc(C(N)=O)c(NC4CC4)n3)cc2)CC1 [Cerdulatinib Hydrochloride] , same question.
Result: > 30 µM (inactive)

Query: Cc1cc(Nc2ncc(Cl)c(Nc3ccccc3S(=O)(=O)C(C)C)n2)c(OC(C)C)cc1C1CCNCC1 [CERITINIB] , same question.
Result: > 30 µM (inactive)

Here is the next item to consider.
Query: Value lookup for Kd; key = Cc1nc(Nc2n[nH]c3c2CN(C(=O)N[C@H](CN(C)C)c2ccccc2)C3(C)C)c2sccc2n1 [PF-03758309]
Result: > 30 µM (inactive)
